# Test system: RXF 393 renal
# assay.overview: NCI tumour cell line growth inhibition, 48 h
Returns one of satisfied or not satisfied; satisfied when TGI is >= 20 µM.

compound: COC1CC(O[C@H]2CC[C@@]3(C)C(=CCC4(O)C3CCC35C(=O)OC6(C)O[C@@]43CCC65)C2)OC(C)C1O (stereo partly specified)
target.of.assay: RXF 393 renal
category.label: satisfied
//
compound: CC(C)(C)c1cc[n+](C[n+]2ccc(C(C)(C)C)cc2)cc1
target.of.assay: RXF 393 renal
category.label: satisfied
//
compound: COC1=CC(c2ccc[nH]2)=N/C1=C\c1[nH]c(C)c(CC(=O)NCc2ccccc2)c1C
target.of.assay: RXF 393 renal
category.label: not satisfied
//
compound: OCC1CC2C=CCC(C2)C1 (stereo unspecified)
target.of.assay: RXF 393 renal
category.label: satisfied
//
compound: NC1=Nc2ccccc2Sc2nccn21
target.of.assay: RXF 393 renal
category.label: satisfied
//
compound: Cc1c(C)c(S(=O)(=O)N(CCCN)OCCCN)c(C)c2c1OC(C)(C)CC2
target.of.assay: RXF 393 renal
category.label: satisfied
//
compound: CCCCC1Nc2ccccc2-c2ccnc(Cl)c21 (stereo unspecified)
target.of.assay: RXF 393 renal
category.label: satisfied
//
compound: C/C1=C\[C@@H](C)C[C@@H](C)OC(=O)[C@@H](C)NC(=O)[C@H](Cc2ccc(O)c(Br)c2)N(C)C(=O)CNC(=O)[C@H](C)C1
target.of.assay: RXF 393 renal
category.label: not satisfied
//
compound: Cc1ccc([N+](=O)[O-])cc1NC(=O)C(=O)Cc1nc2ccc(C(=O)c3ccccc3)cc2[nH]c1=O
target.of.assay: RXF 393 renal
category.label: satisfied
//
compound: O=[N+]([O-])c1cc(I)cc(/C=N/NS(=O)(=O)c2ccc(F)cc2)c1O
target.of.assay: RXF 393 renal
category.label: satisfied
//
compound: C[C@H](CCC(=O)O)[C@H]1CC[C@H]2[C@@H]3[C@@H](O)C[C@@H]4C[C@H](O)CC[C@]4(C)[C@H]3C[C@H](O)[C@]12C
target.of.assay: RXF 393 renal
category.label: satisfied
//
compound: CC1=C/C(=N\NS(=O)(=O)c2ccc([N+](=O)[O-])cc2)CC(C)(C)C1
target.of.assay: RXF 393 renal
category.label: satisfied
//
compound: N#CC12CC(C=O)=C(N)C1(C#N)CC(C=O)=C2N (stereo unspecified)
target.of.assay: RXF 393 renal
category.label: satisfied
//
compound: [N-]=[N+]=C1C(=O)C2CC3CC1CC2C3 (stereo unspecified)
target.of.assay: RXF 393 renal
category.label: satisfied
//
compound: CC1(C)N=C(N)N=C(N)N1c1cccc(CCCCc2ccc(Cl)c(S(=O)(=O)F)c2)c1
target.of.assay: RXF 393 renal
category.label: not satisfied
//
compound: CCCCNC(=O)Oc1ccc(/C(=C(\C)c2ccc(OC)cc2)c2ccc(OCCN3CCCCC3)cc2)cc1
target.of.assay: RXF 393 renal
category.label: not satisfied
//
compound: O=C(Nc1ccc(Cl)cc1)c1cc(NCc2cc(O)ccc2O)ccc1O
target.of.assay: RXF 393 renal
category.label: not satisfied
//
compound: Nc1ccc2nc3n(c2c1)C(c1c(F)cccc1F)SC3 (stereo unspecified)
target.of.assay: RXF 393 renal
category.label: satisfied
//
compound: CN1CCN(c2ccncc2S(=O)(=O)N2CCN(C)CC2)CC1
target.of.assay: RXF 393 renal
category.label: satisfied
//
compound: COc1cc2c(c(OC)c1OC)-c1ccc(OC)c(=O)cc1C(NC(=O)CCCCCNc1ccc(N=[N+]=[N-])cc1[N+](=O)[O-])CC2 (stereo unspecified)
target.of.assay: RXF 393 renal
category.label: not satisfied
